Molecular target: Human KDR (residues 790-1356) (Homo sapiens (Human), UniProt P35968)
Sequence (P35968 790-1356): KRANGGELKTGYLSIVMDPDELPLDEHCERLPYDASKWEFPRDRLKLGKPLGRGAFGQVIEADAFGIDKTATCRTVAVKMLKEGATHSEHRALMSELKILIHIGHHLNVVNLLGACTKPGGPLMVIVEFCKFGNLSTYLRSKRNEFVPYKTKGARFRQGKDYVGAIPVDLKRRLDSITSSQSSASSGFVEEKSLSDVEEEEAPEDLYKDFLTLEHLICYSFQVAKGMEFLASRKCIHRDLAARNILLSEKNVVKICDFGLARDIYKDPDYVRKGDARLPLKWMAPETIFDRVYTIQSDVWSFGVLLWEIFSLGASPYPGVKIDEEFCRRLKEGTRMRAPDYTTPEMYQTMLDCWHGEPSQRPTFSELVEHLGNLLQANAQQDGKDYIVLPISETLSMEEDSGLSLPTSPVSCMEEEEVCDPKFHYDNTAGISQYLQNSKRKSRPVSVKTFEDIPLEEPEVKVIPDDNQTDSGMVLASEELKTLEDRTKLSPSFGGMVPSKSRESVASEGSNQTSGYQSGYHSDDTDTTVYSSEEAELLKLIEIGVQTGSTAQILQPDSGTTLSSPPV
Experiment: Human KDR kinase assay, HTRF KinEase (Example B-2)
Format: biochemical
Conditions: protocol of Example B-2
Experimental: Kinase activity and compound inhibition were also investigated using the HTRF® KinEase assay (Cisbio Cat #62TKOPEB) per manufacturer's instructions. […] After a 60 min incubation at room temperature, the fluorescence at 665 nm and 620 nm was read on an Envision microplate reader (Perkin Elmer). Kinase activity normalized to DMSO (100% activity) and reference compound at […] and (0% activity) was calculated using the fluorescence ratio 620/665×10,000. […]
pIC50: −log10 of the molar value.
// values below are reported pIC50

Example results:
mol-smiles	tgt	pIC50
COc1ccc2nccc(Oc3ccc(NC(=O)c4c(C)ncc(-c5ccc(F)cc5C)c4O)cc3F)c2n1	Human KDR (residues 790-1356) (Homo sapiens (Human), UniProt P35968)	6.52 to 7.00
COc1cc2nccc(Oc3ccc(NC(=O)c4cnc(C)c(-c5ccc(F)cc5)c4O)cc3F)c2nc1NS(C)(=O)=O	Human KDR (residues 790-1356) (Homo sapiens (Human), UniProt P35968)	> 7.00
COc1cnc2c(Oc3ccc(NC(=O)c4cc(C)nn(-c5ccc(F)cc5)c4=O)cc3F)ccnc2c1	Human KDR (residues 790-1356) (Homo sapiens (Human), UniProt P35968)	< 6.52

Query block: pIC50 of `COc1cnc2c(Oc3ccc(NC(=O)c4c(C)n(C)c(C)c(-c5ccc(F)cc5)c4=O)cc3F)ccnc2c1` on Human KDR (residues 790-1356) (Homo sapiens (Human), UniProt P35968)?
Result block: < 6.52

Query block: pIC50 of `COc1cnc2c(Oc3ccc(NC(=O)c4ccnn(-c5ccc(F)cc5C)c4=O)cc3)ccnc2c1` on Human KDR (residues 790-1356) (Homo sapiens (Human), UniProt P35968)?
Result block: < 6.52

Query block: pIC50 of `COCCOc1cnc2c(Oc3ccc(NC(=O)c4ccc(C)n(-c5ccc(F)cc5)c4=O)cc3F)ccnc2c1` on Human KDR (residues 790-1356) (Homo sapiens (Human), UniProt P35968)?
Result block: > 7.00

Query block: pIC50 of `CCc1ncc(C(=O)Nc2ccc(Oc3ccnc4cc(OC)c(OC)nc34)c(F)c2)c(O)c1-c1ccc(F)cc1` on Human KDR (residues 790-1356) (Homo sapiens (Human), UniProt P35968)?
Result block: > 7.00

Query block: pIC50 of `COc1cnc2c(Oc3ccc(NC(=O)c4nn(C(C)C)c(C)c(-c5ccc(F)cc5)c4=O)cc3F)ccnc2c1` on Human KDR (residues 790-1356) (Homo sapiens (Human), UniProt P35968)?
Result block: < 6.52

Query block: pIC50 of `C=C(C)c1cnc2c(Oc3ccc(NC(=O)c4cnc(C)c(-c5ccc(F)cc5)c4O)cc3)ccnc2c1` on Human KDR (residues 790-1356) (Homo sapiens (Human), UniProt P35968)?
Result block: > 7.00

Query block: pIC50 of `Cc1ccc(C(=O)Nc2ccc(Oc3ccnc4cc(O)cnc34)c(F)c2)c(=O)n1-c1ccc(F)cc1` on Human KDR (residues 790-1356) (Homo sapiens (Human), UniProt P35968)?
Result block: 6.52 to 7.00

Query block: pIC50 of `COc1cc2nccc(Oc3cc(F)c(NC(=O)c4cnc(C)c(-c5ccc(F)cc5)c4O)cc3F)c2nc1C` on Human KDR (residues 790-1356) (Homo sapiens (Human), UniProt P35968)?
Result block: 6.52 to 7.00
